Taken from PubChem BioAssay (NCI).

Experiment: NCI Yeast Anticancer Drug Screen. Data for the sgs1 mgt1 strain (AID 161);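 further: 0% = growth of cultures given vehicle only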
Settings: S. cerevisiae sgs1 mgt1 strain, at 5.0 µM (retest, dose inferred, filed as 0.5), hits give high values
Compounds without any hit were thinned out: in the full panel of roughly 79,000, 15% have a hit.
growth inhibition below 10% gives no (0); growth inhibition at or above it gives yes (1).

[
  {
    "MOLECULE": "Cc1ccc(Nc2nc3c(=O)n(C)c(=O)n(C)c3nc2Nc2ccc(C)cc2)cc1",
    "QUALITATIVE LABEL": "no (0)"
  },
  {
    "MOLECULE": "O=c1c2ccccc2ncn1COCc1ccccc1",
    "QUALITATIVE LABEL": "yes (1)"
  },
  {
    "MOLECULE": "C=CCC1=C(C)C(OC(=O)/C=C/c2ccccc2)CC1=O (stereo unspecified)",
    "QUALITATIVE LABEL": "yes (1)"
  },
  {
    "MOLECULE": "Cc1ccc(CSC(N)=Nc2ccccc2)cc1C",
    "QUALITATIVE LABEL": "no (0)"
  }
]

Task: Evaluate CCOC(=O)C1=C(C(=O)c2ccccc2)C(c2ccccc2[N+](=O)[O-])C(C(=O)c2ccccc2)=C(C(=O)OCC)N1 : growth inhibition at minimum 10%?
Result: no (0)

Task: growth inhibition >= 10% for Nc1nc(-c2cccnc2)cc(-c2cc(-c3cccnc3)nc(N)n2)n1 ?
Result: yes (1)

----------
Experiment: NCI Yeast Anticancer Drug Screen. Data for the cln2 rad14 strain (AID 165);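 further: 0% = growth equal to vehicle treated cultures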
Conditions: S. cerevisiae cln2 rad14 strain, at 50.0 µM (retest, dose inferred, filed as 5.0)
Compounds without any hit were thinned out: in the full panel of roughly 79,000, 15% have a hit. Active and inactive are the calls of the source. No stated cut-off is given here; in the data, active means growth inhibition above about 70%; inactive means the rest.
Please state which outcome applies, choosing from active, inactive

[
  {
    "COMPOUND": "Cc1cc2c(cc1C(=O)CCC(=O)O)CC1(C2)Cc2cc(C)c(C(=O)CCC(=O)O)cc2C1",
    "QUALITATIVE LABEL": "inactive"
  },
  {
    "COMPOUND": "CCCCCCCCCCCCCCCCCCOCC(O)COP(=O)(O)OCC1OC(n2cc(F)c(=O)[nH]c2=O)CC1O (stereo unspecified)",
    "QUALITATIVE LABEL": "active"
  },
  {
    "COMPOUND": "BrCc1cccc2ccc3cccc(CBr)c3c12",
    "QUALITATIVE LABEL": "inactive"
  },
  {
    "COMPOUND": "O=C(CCCN1CCC(O)(c2ccc(Cl)cc2)CC1)c1ccc(F)cc1",
    "QUALITATIVE LABEL": "active"
  },
  {
    "COMPOUND": "c1ccc2c(c1)c1ncccc1c1nccnc21",
    "QUALITATIVE LABEL": "inactive"
  }
]

Task: Just curious, what result did O=C(O)C1OC1(c1cccc(Cl)c1)c1ccccc1Cl (stereo unspecified) get here?
Result: active

Task: # outcome recorded in this test, key = O=C(OCC=C1CCCC1)c1cc([N+](=O)[O-])cc([N+](=O)[O-])c1
Result: inactive

Task: Test call for this compound, please: COc1ccc2c(c1)C(=O)c1ccccc1C2
Result: inactive

Task: Hi team, can someone confirm the assay call for CCCCN(CCCC)CCSc1ccc(Cl)cc1 ?
Result: inactive

Task: # lookup: test call for OCC1OC(OCC(O)C(O)C(O)C(/C=N/Nc2ccccc2)=N/Nc2ccccc2)C(O)C(O)C1O (stereo unspecified)
Result: inactive

Task: For NNc1c(F)c(F)cc(F)c1F , which call appears in the assay record?
Result: inactive
